Where do these numbers come from? They come from patent US20220380463A1.

Entries and their koff
Target: T1, Cynomolgus CD3εδ Fc heterodimer (Cy CD3ε Fc / CD3δ Fc-HIS) (cynomolgus, UniProt Q95LI8 22-100)
T1 chain 1: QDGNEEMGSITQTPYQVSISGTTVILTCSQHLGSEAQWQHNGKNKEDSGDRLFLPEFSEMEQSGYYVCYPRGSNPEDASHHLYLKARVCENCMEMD
T1 chain 2: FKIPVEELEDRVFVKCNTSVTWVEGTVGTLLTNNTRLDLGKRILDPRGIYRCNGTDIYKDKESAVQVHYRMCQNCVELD
Test: BLI (Octet), IgG on AHC sensor, pH 6.0
Supply the numeric figure in s⁻¹, leaving out any unit text.

The cases that follow already have their koff on record.
BINDER | MEASUREMENT KIND | UNIT ABBREVIATION | RESULT NUMBER
SAD10319_P05_B04 (ADI-57401) (antibody, V domains shown, IgG; also called Ab128) VH: QVQLVQSGAEVKKPGASVKVSCKASGYTFTSAVMHWVRQAPGQRLEWMGDINAGTGATDYSQKFQGRVTITRDTSASTAYMELSSLRSEDTAVYYCARDAYGRYFYDVWGQGTLVTVSS VL: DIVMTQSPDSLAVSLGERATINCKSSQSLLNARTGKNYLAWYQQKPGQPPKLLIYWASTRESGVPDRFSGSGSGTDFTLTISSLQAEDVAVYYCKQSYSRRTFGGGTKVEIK | koff | s⁻¹ | 0.00258
SAD10319_P05_B02 (ADI-57399) (antibody, V domains shown, IgG; also called Ab126) VH: QVQLVQSGAEVKKPGASVKVSCKASGYTFTSYNMHWVRQAPGPSLEWMGSIDAGTGATDYSQKFQGRVTITRDTSASTAYMELSSLRSEDTAVYYCARDAYHHYFYDVWGQGTLVTVSS VL: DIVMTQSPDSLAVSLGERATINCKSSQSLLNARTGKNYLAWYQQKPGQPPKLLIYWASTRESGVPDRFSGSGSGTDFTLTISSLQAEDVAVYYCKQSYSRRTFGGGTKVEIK | koff | s⁻¹ | 0.00411

Now examine the next entry.
Measured koff, SAD10320_P03_F09 (ADI-48656) (antibody, V domains shown, IgG; also called Ab101) VH: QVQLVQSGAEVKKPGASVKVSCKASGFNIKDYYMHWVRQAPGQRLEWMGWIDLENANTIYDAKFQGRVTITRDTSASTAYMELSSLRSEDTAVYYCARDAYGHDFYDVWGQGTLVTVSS VL: DIVMTQSPDSLAVSLGERATINCKSSQSLLNARTGKNYLAWYQQKPGQPPKLLIYWASTRESGVPDRFSGSGSGTDFTLTISSLQAEDVAVYYCKQSYHRRTFGGGTKVEIK : 0.00719
